assayed target: Human Prostanoid EP4 Receptor (Homo sapiens (Human))
Sequence (P35408 whole entry): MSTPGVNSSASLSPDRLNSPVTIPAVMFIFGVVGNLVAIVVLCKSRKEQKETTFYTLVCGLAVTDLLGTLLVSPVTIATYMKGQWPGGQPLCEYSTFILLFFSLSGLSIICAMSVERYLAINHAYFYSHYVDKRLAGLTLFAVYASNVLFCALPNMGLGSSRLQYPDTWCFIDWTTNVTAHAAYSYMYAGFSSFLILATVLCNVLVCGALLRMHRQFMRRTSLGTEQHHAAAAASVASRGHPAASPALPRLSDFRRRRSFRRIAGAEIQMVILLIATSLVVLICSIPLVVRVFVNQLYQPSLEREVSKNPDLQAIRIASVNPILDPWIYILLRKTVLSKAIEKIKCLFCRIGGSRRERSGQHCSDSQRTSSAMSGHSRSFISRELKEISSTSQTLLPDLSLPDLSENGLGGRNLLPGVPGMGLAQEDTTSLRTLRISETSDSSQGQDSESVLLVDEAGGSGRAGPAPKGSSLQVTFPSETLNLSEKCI
assay info: Radioligand binding assay, agonist site of the human prostanoid EP4 receptor in transfected HEK-293 cells ([3H]PGE2)
assay setup: read-out: hEP4 receptor binding IC50
experimental endpoint: pIC50
Reminder that pIC50 is minus the log10 of a molar concentration.

Query: What does the record list as pIC50 for O=C(O)CCCCCCN1C(=O)CC[C@@H]1/C=C/[C@@H](O)CCCCc1ccccc1 [Example 1C] ?
Reply: 8.00

====

Assign EC50 to each entry below.
assayed target: EP2 receptor (Rattus norvegicus (Rat), UniProt Q62928)
Sequence (Q62928 whole entry): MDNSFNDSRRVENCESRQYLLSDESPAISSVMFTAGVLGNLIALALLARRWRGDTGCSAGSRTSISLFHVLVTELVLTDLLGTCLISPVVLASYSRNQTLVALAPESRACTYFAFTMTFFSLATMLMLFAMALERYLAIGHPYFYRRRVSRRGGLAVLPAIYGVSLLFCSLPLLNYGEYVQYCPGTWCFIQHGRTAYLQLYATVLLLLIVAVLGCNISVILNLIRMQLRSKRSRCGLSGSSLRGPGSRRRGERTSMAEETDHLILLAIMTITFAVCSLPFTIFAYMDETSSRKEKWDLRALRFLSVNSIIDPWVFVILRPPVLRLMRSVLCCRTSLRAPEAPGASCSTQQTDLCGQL
assay info: STEP plate cell functional assay, SEAP activity, EP2
assay setup: SEAP reporter, 6-8 hours stimulation

Query: Missing value: EC50, EP2 receptor (Rattus norvegicus (Rat), UniProt Q62928), entry CC(CCCc1ccccc1)[C@@H](O)/C=C/[C@H]1CCC(=O)N1CC#Cc1ccc(C(=O)O)s1 (mixture of isomers) . Fill in?
Reply: > 10000 nM

Query: Missing value: EC50, EP2 receptor (Rattus norvegicus (Rat), UniProt Q62928), entry CC(CCCc1ccccc1)[C@H](O)/C=C/[C@H]1CCC(=O)N1CCCc1ccc(C(=O)O)s1 (mixture of isomers) . Fill in?
Reply: 2280 nM

Query: Missing value: EC50, EP2 receptor (Rattus norvegicus (Rat), UniProt Q62928), entry O=C(O)CCCCCCN1C(=O)CC[C@@H]1/C=C/[C@@H](O)CCCCc1ccccc1 . Fill in?
Reply: > 1000 nM

Query: Missing value: EC50, EP2 receptor (Rattus norvegicus (Rat), UniProt Q62928), entry CC(CCCc1ccccc1)[C@@H](O)/C=C/[C@H]1CCC(=O)N1CCCc1ccc(C(=O)O)s1 (mixture of isomers) . Fill in?
Reply: > 10000 nM

Query: Missing value: EC50, EP2 receptor (Rattus norvegicus (Rat), UniProt Q62928), entry CC(CCCc1ccccc1)[C@H](O)/C=C/[C@H]1CCC(=O)N1CCCCCCC(=O)O (mixture of isomers) . Fill in?
Reply: > 1000 nM

Query: Missing value: EC50, EP2 receptor (Rattus norvegicus (Rat), UniProt Q62928), entry CC(CCCc1ccccc1)[C@H](O)/C=C/[C@H]1CCC(=O)N1CC#Cc1ccc(C(=O)O)s1 (mixture of isomers) . Fill in?
Reply: > 10000 nM

====

assayed target: EP4 receptor (Rattus norvegicus (Rat), UniProt P43114)
Sequence (P43114 whole entry): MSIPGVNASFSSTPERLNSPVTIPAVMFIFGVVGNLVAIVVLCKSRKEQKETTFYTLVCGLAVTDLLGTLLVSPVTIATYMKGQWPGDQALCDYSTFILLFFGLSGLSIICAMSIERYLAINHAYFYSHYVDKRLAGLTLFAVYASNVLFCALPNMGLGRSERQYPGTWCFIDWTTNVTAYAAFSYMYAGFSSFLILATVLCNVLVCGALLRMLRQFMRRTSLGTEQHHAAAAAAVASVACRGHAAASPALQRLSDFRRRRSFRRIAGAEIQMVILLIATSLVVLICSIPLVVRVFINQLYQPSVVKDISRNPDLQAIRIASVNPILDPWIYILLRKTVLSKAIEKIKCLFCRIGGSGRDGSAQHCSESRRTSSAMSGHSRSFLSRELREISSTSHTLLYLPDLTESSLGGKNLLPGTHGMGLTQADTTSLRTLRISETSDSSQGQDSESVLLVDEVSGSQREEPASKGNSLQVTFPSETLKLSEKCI
assay info: STEP plate cell functional assay, cAMP level (ELISA), EP4
Format: cell-based
assay setup: 30 minutes, 500 μM IBMX
Assign pEC50 to each entry below.
Reminder that pEC50 is minus the log10 of a molar concentration.

Query: What does the record list as pEC50 for O=C(O)CCCCCCN1C(=O)CC[C@@H]1/C=C/[C@@H](O)CCCCc1ccccc1 ?
Reply: 8.86

Query: What does the record list as pEC50 for CC(CCCc1ccccc1)[C@H](O)/C=C/[C@H]1CCC(=O)N1CCCCCCC(=O)O (mixture of isomers) ?
Reply: 11.15
